- runDescription: Cytotoxicity against African green monkey Vero cells assessed as cell growth inhibition at 60 uM measured after 48 hrs by CCK8 assay relative to control
- Type: cell-based
- measurementParameters: chlorocebus sabaeus
quantityKind: inhibition at 48 h, 60 µM (%)
Numbers only, in %.

Solved cases (4 shown):
> print(dat)
                                 smilestext               quantitykind  valueunit  recordednumber
1  Cc1cc(C)n(Cc2ccc(C(=O)Nc3ccc(Cl)c(Cl)c3)s2)n1  inhibition at 48 h, 60 µM          %            21.9
2  Cc1cc(C)n(Cc2ccc(C(=O)Nc3ccc4cc[nH]c4c3)s2)n1  inhibition at 48 h, 60 µM          %            -3.2
3  Cc1cc(C)n(Cc2ccc(C(=O)Nc3ccc(-c4cccnc4)cc3)s2)n1  inhibition at 48 h, 60 µM          %            -3.8
4  Cc1cc(C)n(Cc2ccc(C(=O)Nc3ccc(F)cc3C)s2)n1  inhibition at 48 h, 60 µM          %            -1.5

With those in mind, consider the next compound.
Determine from records and report inhibition at 48 h, 60 µM for `O=C(Nc1cc(Cl)cc(Cl)c1)c1ccc(Cn2nc(C(F)(F)F)cc2C(F)(F)F)o1`
96.2

====

- runDescription: Acute toxicity in ip dosed ICR mouse assessed as lethal dose measured after 24 hrs
- Assay type: organism-based
- measurementParameters: in vivo
Please go through the items and note down their LD50 at 24 h.

> print(dat)
                                 smilestext      result
1  O=C(Nc1cc(Cl)cc(Cl)c1)c1ccc(Cn2nc(C(F)(F)F)cc2C(F)(F)F)o1  1500 mg/kg

// moving on: another record for LD50 at 24 h
Respond only with LD50 at 24 h recorded for `Cc1cc(C)n(Cc2ccc(C(=O)Nc3ccc(Cl)c(Cl)c3)s2)n1`
1500 mg/kg

====

I'd appreciate it if you could supply AUC(0-t) at 24 h values for the items below.
- runDescription: AUC (0 to t) in ICR mouse at 3 mg/kg, iv measured up to 24 hrs by HPLC-MS/MS analysis
- Assay type: ADME, organism-based
- Design: route intravenous, dose 3 mg/kg, time <=24
- measurementParameters: in vivo
Give bare numbers, in ng·h/mL.

> print(dat)
                                 smilestext      quantitykind  valueunit  recordednumber
1  Cc1cc(C)n(Cc2ccc(C(=O)Nc3ccc(Cl)c(Cl)c3)s2)n1  AUC(0-t) at 24 h    ng·h/mL            1450

Now take the following compound into account.
Let me know recorded AUC(0-t) at 24 h for `O=C(Nc1cc(Cl)cc(Cl)c1)c1ccc(Cn2nc(C(F)(F)F)cc2C(F)(F)F)o1` , thanks.
1750

====

- runDescription: Drug concentration in Sprague-Dawley rat brain at 3 mg/kg, iv measured at 80 mins by LC-MS/MS analysis
- Format: ADME, organism-based
- measurementParameters: read-out: Ct
quantityKind: concentration at 1.333 h (ng/g)
Numbers only, in ng/g.

Indicate its recorded concentration at 1.333 h; the compound in question is `Cc1cc(C)n(Cc2ccc(C(=O)Nc3ccc(Cl)c(Cl)c3)s2)n1`
354

====

Field: fold change (FC). Provide a value for each of the compounds that follow.
- targetEntity: Glutamate NMDA receptor (Mus musculus) (UniProt P35436+Q91ZU9+Q03391+P35438+Q01097+Q01098+A2AIR5)
- runDescription: Positive allosteric modulation of C57BL/6 mouse NMDA receptor assessed as fold change in compound potentiated NMDA-induced current relative to NMDA current alone at 30 uM measured after 15 to 30 mins by patch-clamp method
- Assay type: tissue-based
- measurementParameters: Brain, filed as positive allosteric modulator, time 15-30 min
Give bare numbers.

Some solved cases for reference:
> print(dat)
                                 smilestext      quantitykind  recordednumber
1  Cc1cc(C(F)(F)F)n(Cc2ccc(C(=O)Nc3ccc(Br)cc3C)o2)n1  fold change (FC)             1.2
2  Cc1cc(C)n(Cc2ccc(C(=O)Nc3ccc(Cl)cc3C(=O)NCCCO)o2)n1  fold change (FC)             2.9
3  CCc1cc(Br)ccc1NC(=O)c1ccc(Cn2nc(C)cc2C)o1  fold change (FC)             2.6

// input: 4 compounds below; output: fold change (FC) for each
1. Cc1cc(C)n(Cc2ccc(C(=O)Nc3cc(Cl)cc(Cl)c3)s2)n1
2. Cc1cc(C)n(Cc2ccc(C(=O)Nc3ccc4cccnc4c3)s2)n1
3. Cc1cc(C)n(Cc2ccc(C(=O)Nc3ccc(F)c(C)c3)s2)n1
4. O=C(Nc1ccc(Cl)cc1C(=O)NCCCCO)c1ccco1

1: 1.2; 2: 1.1; 3: 2.4; 4: 3.5

====

- runDescription: Half life in Sprague-Dawley rat at 10 mg/kg, po measured up to 1280 mins by HPLC-MS/MS analysis
- Format: ADME, organism-based
- measurementParameters: in vivo
quantityKind: half-life (h)
Answers are plain numbers, in h.

Using the record for `Cc1cc(C)n(Cc2ccc(C(=O)Nc3ccc(Cl)c(Cl)c3)s2)n1` , state its measured half-life.
1.13

====

- System: HEK293
- runDescription: Cytotoxicity against human HEK293 cells assessed as cell growth inhibition measured after 48 hrs by CCK8 assay
- Type: cell-based
- measurementParameters: HEK293, 48 h
quantityKind: IC50 (µM)
Give bare numbers, in µM.

State, in one line, measured IC50 of `O=C(Nc1cc(Cl)cc(Cl)c1)c1ccc(Cn2nc(C(F)(F)F)cc2C(F)(F)F)o1`
84.8

====

- Tested on: L929
- runDescription: Cytotoxicity against mouse L929 cells assessed as cell growth inhibition measured after 48 hrs by CCK8 assay
- Assay type: cell-based
- measurementParameters: L929, 48 h
quantityKind: IC50 (µM)
Answers are plain numbers, in µM.

// Input: `O=C(Nc1cc(Cl)cc(Cl)c1)c1ccc(Cn2nc(C(F)(F)F)cc2C(F)(F)F)o1` . Output its IC50 only.
29.7

====

- runDescription: Clearance in ICR mouse at 3 mg/kg, iv measured up to 24 hrs by HPLC-MS/MS analysis
- Assay type: ADME, organism-based
- measurementParameters: in vivo
Kindly state clearance for each of the entries shown.
One number for each entry, in mL/min/kg.

Respectfully, I request clearance for each entry included below.
1. O=C(Nc1cc(Cl)cc(Cl)c1)c1ccc(Cn2nc(C(F)(F)F)cc2C(F)(F)F)o1
2. Cc1cc(C)n(Cc2ccc(C(=O)Nc3ccc(Cl)c(Cl)c3)s2)n1

[30, 33.3]

====

- targetEntity: hERG (KCNH2) (Homo sapiens)
- Sequence (Q12809 whole entry): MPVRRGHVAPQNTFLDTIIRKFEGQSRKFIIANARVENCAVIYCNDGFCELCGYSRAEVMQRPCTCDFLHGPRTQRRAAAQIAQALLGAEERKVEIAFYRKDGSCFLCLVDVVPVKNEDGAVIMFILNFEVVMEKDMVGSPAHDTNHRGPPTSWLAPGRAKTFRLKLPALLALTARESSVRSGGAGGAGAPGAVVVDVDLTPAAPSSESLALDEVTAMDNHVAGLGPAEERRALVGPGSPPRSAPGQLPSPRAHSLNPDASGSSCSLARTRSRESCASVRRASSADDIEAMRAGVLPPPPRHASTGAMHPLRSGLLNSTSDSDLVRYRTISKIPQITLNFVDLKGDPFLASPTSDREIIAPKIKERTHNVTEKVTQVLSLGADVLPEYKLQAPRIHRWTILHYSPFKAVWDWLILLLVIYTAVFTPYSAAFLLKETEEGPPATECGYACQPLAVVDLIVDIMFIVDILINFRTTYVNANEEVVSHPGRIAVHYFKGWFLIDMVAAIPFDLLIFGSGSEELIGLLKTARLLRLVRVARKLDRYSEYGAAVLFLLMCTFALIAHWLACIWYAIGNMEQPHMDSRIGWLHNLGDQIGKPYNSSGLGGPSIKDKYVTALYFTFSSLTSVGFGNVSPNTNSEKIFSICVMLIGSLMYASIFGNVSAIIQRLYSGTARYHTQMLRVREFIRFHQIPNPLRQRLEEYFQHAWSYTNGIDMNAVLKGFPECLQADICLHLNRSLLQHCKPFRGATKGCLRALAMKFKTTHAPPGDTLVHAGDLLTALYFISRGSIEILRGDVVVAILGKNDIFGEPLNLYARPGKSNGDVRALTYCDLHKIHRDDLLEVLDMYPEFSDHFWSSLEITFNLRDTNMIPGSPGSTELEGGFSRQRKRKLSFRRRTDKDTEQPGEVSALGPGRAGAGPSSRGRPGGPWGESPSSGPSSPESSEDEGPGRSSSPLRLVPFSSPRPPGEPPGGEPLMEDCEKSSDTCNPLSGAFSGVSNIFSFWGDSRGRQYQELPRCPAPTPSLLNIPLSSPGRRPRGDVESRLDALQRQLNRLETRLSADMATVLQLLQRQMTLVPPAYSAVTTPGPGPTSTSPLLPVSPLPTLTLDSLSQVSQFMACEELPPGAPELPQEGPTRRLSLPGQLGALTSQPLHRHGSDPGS
- runDescription: Inhibition of human ERG expressed in CHO cells at 100 uM with holding potential at -80 to -60 mV for 500s followed by raise in potential at +30 mV for 2 sec and subsequent repolarization to -60 mV for 2 sec by whole-cell patch clamp method relative to control
- Type: cell-based
- measurementParameters: CHO cells expressing human ERG
quantityKind: inhibition at 2 s, 100 µM (%)
Give bare numbers, in %.

Examples from the recorded data:
> print(dat)
                                 smilestext                 targetentity               quantitykind  recordednumber
1  O=C(Nc1cc(Cl)cc(Cl)c1)c1ccc(Cn2nc(C(F)(F)F)cc2C(F)(F)F)o1  hERG (KCNH2) (Homo sapiens)  inhibition at 2 s, 100 µM            68.4
2  Cc1cc(C)n(Cc2ccc(C(=O)Nc3ccc(F)cc3C)s2)n1  hERG (KCNH2) (Homo sapiens)  inhibition at 2 s, 100 µM            47.6

Record inhibition at 2 s, 100 µM per entry; entries follow.
1. Cc1cc(C)n(Cc2ccc(C(=O)Nc3ccc4cc[nH]c4c3)s2)n1
2. Cc1cc(C)n(Cc2ccc(C(=O)Nc3ccc(-c4cccnc4)cc3)s2)n1
3. Cc1cc(C)n(Cc2ccc(C(=O)Nc3ccc(Cl)c(Cl)c3)s2)n1

1: 46.7; 2: 53.4; 3: 45

====

- runDescription: Tmax in Sprague-Dawley rat at 10 mg/kg, po measured up to 1280 mins by HPLC-MS/MS analysis
- Type: ADME, organism-based
- measurementParameters: in vivo
quantityKind: Tmax (min)
Numbers only, in min.

// Input: `Cc1cc(C)n(Cc2ccc(C(=O)Nc3ccc(Cl)c(Cl)c3)s2)n1` . Output its Tmax only.
33.3

====

- runDescription: Drug concentration in Sprague-Dawley rat brain at 3 mg/kg, iv measured at 20 mins by LC-MS/MS analysis
- Assay type: ADME, organism-based
- measurementParameters: read-out: Ct
quantityKind: concentration at 20 min (ng/g)
Answers are plain numbers, in ng/g.

Read the entry `Cc1cc(C)n(Cc2ccc(C(=O)Nc3ccc(Cl)c(Cl)c3)s2)n1` and write its reported concentration at 20 min.
2190
